biological target: T1, Sulfotyrosine CCR2b biotin peptide (human); assay: ELISA, 50 nM mAb
T1 construct: also called CCR2b peptide
T1 peptide: TTFFD[sY]D[sY]GAPSHGGK(Biotin)
Non-standard residues stand in square brackets, D forms with d. No end group written: not given here. *: point of attachment. Biotin = O=C1N[C@H]2[C@H](CS[C@H]2CCCCC(=O)*)N1; sY = N[C@@H](Cc1ccc(OS(=O)(=O)O)cc1)C(=O)O
measurement-kind: binding normalized to PSGL-1
Keep the answer to the number alone.

State the recorded binding normalized to PSGL-1 for this entry: 05A11 (antibody, IgG4, V domains shown) VH: EVKLLESGGGVVQPGRSLRLSCAASGFSFSAYGMHWVRQAPGKGLEWVSSISGSGDGTYYADSVKGRFTISRDNSKNTLYLQMNSLRAEDAAVYYCAKSVKGRGYFFDYWGQGTLVTVSS VL: DIVLTQSPSSLSASVGDRVTITCRASQSISSYLNWYQQKPGKAPKLLIYAASSLQSGVPSRFSGSGSGTDFTLSISNLQPEDFATYYCQQAYKFPRSFGGGTKVEFK
0.09
